Biological target: MDR1 (P-gp) (Homo sapiens (Human), UniProt P08183)
Sequence (P08183 whole entry): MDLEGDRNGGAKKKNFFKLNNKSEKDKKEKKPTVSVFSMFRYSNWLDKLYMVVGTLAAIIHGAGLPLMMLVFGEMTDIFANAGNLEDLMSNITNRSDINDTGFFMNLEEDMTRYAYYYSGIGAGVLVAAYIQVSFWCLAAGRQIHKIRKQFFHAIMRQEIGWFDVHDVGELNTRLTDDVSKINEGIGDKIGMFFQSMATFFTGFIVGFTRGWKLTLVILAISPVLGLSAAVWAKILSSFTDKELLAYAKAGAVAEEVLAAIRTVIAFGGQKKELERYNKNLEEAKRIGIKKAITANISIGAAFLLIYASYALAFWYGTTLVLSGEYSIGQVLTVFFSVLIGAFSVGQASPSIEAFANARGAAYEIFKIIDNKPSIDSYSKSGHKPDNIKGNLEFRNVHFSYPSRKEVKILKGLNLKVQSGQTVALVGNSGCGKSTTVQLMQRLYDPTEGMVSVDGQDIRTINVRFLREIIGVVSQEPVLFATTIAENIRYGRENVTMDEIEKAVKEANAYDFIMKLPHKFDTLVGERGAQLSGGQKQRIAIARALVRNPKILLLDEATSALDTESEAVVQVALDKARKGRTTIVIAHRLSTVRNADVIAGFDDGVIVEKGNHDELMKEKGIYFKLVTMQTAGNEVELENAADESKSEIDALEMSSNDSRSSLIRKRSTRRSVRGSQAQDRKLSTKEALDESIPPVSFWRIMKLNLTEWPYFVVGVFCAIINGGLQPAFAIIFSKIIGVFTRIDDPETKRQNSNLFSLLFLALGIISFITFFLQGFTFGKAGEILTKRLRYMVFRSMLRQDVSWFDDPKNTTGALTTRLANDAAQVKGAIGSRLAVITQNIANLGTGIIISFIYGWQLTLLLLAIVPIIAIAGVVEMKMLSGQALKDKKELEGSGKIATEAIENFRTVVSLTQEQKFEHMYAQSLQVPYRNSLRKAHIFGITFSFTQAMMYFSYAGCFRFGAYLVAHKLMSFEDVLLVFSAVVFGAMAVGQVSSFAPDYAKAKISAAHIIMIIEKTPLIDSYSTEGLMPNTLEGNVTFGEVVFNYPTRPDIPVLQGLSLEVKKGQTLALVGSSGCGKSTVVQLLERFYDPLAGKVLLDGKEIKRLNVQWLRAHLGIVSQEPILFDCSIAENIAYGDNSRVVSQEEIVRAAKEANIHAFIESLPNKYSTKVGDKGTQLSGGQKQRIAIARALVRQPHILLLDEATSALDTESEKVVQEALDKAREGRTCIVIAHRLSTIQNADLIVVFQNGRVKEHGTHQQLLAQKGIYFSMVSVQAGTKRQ
Assay: MDR1 transfected LLC-PK1 permeability/efflux, Assay 6
Conditions: pig, LLC-PK1, Assay 6 Pe Ratio, efflux ratio Papp(B-A)/Papp(A-B), MDR1 transfected LLC-PK1
Listing: efflux ratio at 2 h, 1 μM of selected molecules
measurement.name: efflux ratio at 2 h, 1 μM

• Cc1cc(Nc2ncnc3cnc(NCC(F)F)nc23)ccc1Oc1cc(F)c2c(c1)ncn2C = 1.6
• Cc1cc(Nc2ncnc3cnc(N4C[C@@H](C)O[C@@H](C)C4)nc23)ccc1Oc1ccc2c(c1)ncn2C = 1.7
• Cc1cc(Nc2ncnc3cnc(NC4=NC(C)(C)CO4)nc23)ccc1Oc1ccc2c(c1)ncn2C = 34.5
• Cc1cc(Nc2ncnc3cnc(N4CCN(C)[C@@H](C)C4)nc23)ccc1Oc1ccc2c(c1)ncn2C = 4

###

Target or system ErbB2 WT (Homo sapiens (Human), UniProt P04626); recorded quantity IC50.
measurement.name: IC50

* FC(F)[C@H]1CCN1c1ncc2ncnc(Nc3ccc(Oc4ccn5ncnc5c4)c(Cl)c3)c2n1 [Example 410] | 42.3 nM
* Cc1cc(Nc2ncnc3cnc(N4CCCC5(COC5)C4)nc23)ccc1Oc1ccc2c(c1)ncn2C [Example 45] | 25 nM
* Cc1c(Oc2ccn3ncnc3c2)ccc(Nc2ncnc3cnc(N4CC[C@@H](O)C4)nc23)c1F [Example 312] | 54.2 nM
* Cn1cnc2cc(Oc3ccc(Nc4ncnc5cnc(N6CCC(C)(O)CC6)nc45)cc3Cl)ccc21 [Example 480] | 23.3 nM
* Cc1cc(Nc2ncnc3cnc(N4CCN(C)[C@H](C)C4)nc23)ccc1Oc1ccc2c(c1)ncn2C [Example 281] | 84.2 nM
* Cc1cc(Nc2ncnc3cnc(S(C)(=O)=O)nc23)ccc1Oc1ccc2c(c1)ncn2C [Example 2] | 14.9 nM
* Cn1cnc2cc(Oc3ccc(Nc4ncnc5cnc(N6C[C@@H]7CC[C@H]6CO7)nc45)cc3Cl)ccc21 [Example 446] | 134 nM
* Clc1cc(Nc2ncnc3cnc(N4CC5CCC(C4)O5)nc23)ccc1Oc1ccn2ncnc2c1 [Example 383] | 75.3 nM
* Cc1cc(Nc2ncnc3cnc(N(C)CC4(O)CC4)nc23)ccc1Oc1ccn2ncnc2c1 [Example 385] | 40 nM
* CO[C@H]1CCCN(c2ncc3ncnc(Nc4ccc(Oc5ccc6c(c5)ncn6C)c(C)c4)c3n2)C1 [Example 248] | 122 nM
* CC1(C)CN(c2ncc3ncnc(Nc4ccc(Oc5ccn6ncnc6c5)c(Cl)c4)c3n2)CCO1 [Example 330] | 72.6 nM
* Cc1cc(Nc2ncnc3cnc(N4CCN[C@H](C(F)(F)F)C4)nc23)ccc1Oc1ccn2ncnc2c1 [Example 355] | 24.5 nM
* Cc1ncc(-c2ncc3ncnc(Nc4ccc(Oc5ccc6c(c5)ncn6C)c(C)c4)c3n2)s1 [Example 42] | 176 nM
* Cc1cc(Nc2ncnc3cnc(N4CCP(C)(=O)CC4)nc23)ccc1Oc1ccc2c(c1)ncn2C [Example 463] | 275 nM
* Cc1cc(Nc2ncnc3cnc(N4CCC4C(F)(F)F)nc23)ccc1Oc1ccc2c(c1)ncn2C (stereo not drawn) [Example 238] | 227 nM
* Cc1cc(Nc2ncnc3cnc(N4CCC(C)(O)CC4)nc23)c(F)cc1Oc1ccc2c(c1)ncn2C [Example 215] | 120 nM
* Cc1cc(Nc2ncnc3cnc(N4CCCCC4)nc23)ccc1Oc1ccc2c(c1)ncn2C [Example 242] | 130 nM
* Cc1cc(Nc2ncnc3cnc(N4CC(C(C)(C)O)C4)nc23)ccc1Oc1ccn2ncnc2c1 [Example 343] | 120 nM
* Cc1cc(Nc2ncnc3cnc(N4CC[C@](C)(O)C4)nc23)ccc1Oc1ccc2c(c1)ncn2C [Example 179] | 12.9 nM
* CON1CCN(c2ncc3ncnc(Nc4ccc(Oc5ccc6c(c5)ncn6C)c(C)c4Cl)c3n2)CC1 [Example 98] | 1950 nM
* Cc1cc(Nc2ncnc3cnc(N4CCN[C@@H](C)C4)nc23)ccc1Oc1ccc2c(c1)ncn2C [Example 278] | 42.9 nM
